Test system: PXR homodimer (NR concentration 270 nM)
experiment: PBM binding z-score (relative to random genomic background probes); higher = stronger binding; sequences stand for … in GC…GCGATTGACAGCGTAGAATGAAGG
Each item that follows carries a reported PBM binding z-score.
# answer = number (no unit)

[
  {
    "chain_sequence": "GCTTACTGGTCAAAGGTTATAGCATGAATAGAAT",
    "target_or_test_system": "PXR homodimer (NR concentration 270 nM)",
    "experimental_endpoint": "PBM binding z-score",
    "val": 0.438
  },
  {
    "chain_sequence": "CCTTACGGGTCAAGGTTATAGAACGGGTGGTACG",
    "target_or_test_system": "PXR homodimer (NR concentration 270 nM)",
    "experimental_endpoint": "PBM binding z-score",
    "val": 0.223
  },
  {
    "chain_sequence": "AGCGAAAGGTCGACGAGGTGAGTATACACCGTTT",
    "target_or_test_system": "PXR homodimer (NR concentration 270 nM)",
    "experimental_endpoint": "PBM binding z-score",
    "val": 0.276
  }
]

Could you now look at the following sequence, please?
Challenge: For `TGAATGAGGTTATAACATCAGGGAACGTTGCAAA` , what is its reported PBM binding z-score?
Response given: -0.514

* * *

Tested on: LXRb:RXRa (NR concentration 270 nM, RXRa partner concentration 90 nM)
experiment: PBM binding z-score (relative to random genomic background probes); higher = stronger binding; sequences stand for … in GC…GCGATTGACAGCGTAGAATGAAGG
Classes by PBM binding z-score: lower level = under 0.9, middle level = from 0.9 up to 1, upper level = 1 and over

[
  {
    "chain_sequence": "GCATATAGGTAATACAAGGCGAAAGTCCGATTGT",
    "group_label": "lower level"
  }
]

Challenge: Hi there! Could you help me figure out the category for `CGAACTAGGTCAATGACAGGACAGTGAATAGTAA` please?
Response given: upper level

Challenge: Follow-up item: `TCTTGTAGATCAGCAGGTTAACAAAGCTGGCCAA`
Response given: lower level

Challenge: Follow-up item: `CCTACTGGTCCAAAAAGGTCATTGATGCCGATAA`
Response given: upper level

Challenge: Follow-up item: `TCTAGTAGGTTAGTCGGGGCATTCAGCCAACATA`
Response given: upper level

Challenge: Follow-up item: `TCAAATAGGTAAACAGGTGAAAGTCCGTAAGTTA`
Response given: middle level

Challenge: Follow-up item: `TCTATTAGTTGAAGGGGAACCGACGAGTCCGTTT`
Response given: upper level

* * *

Each item that follows carries a reported PBM binding z-score.
Test system: LXRa:RXRa (NR concentration 270 nM, RXRa partner concentration 90 nM)
experiment: PBM binding z-score (relative to random genomic background probes); higher = stronger binding; sequences stand for … in GC…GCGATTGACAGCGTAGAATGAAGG

[
  {
    "chain_sequence": "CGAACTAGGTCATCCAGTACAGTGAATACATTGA",
    "PBM binding z-score": 2.86
  },
  {
    "chain_sequence": "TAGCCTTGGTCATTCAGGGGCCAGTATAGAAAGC",
    "PBM binding z-score": -0.328
  },
  {
    "chain_sequence": "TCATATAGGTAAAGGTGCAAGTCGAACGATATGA",
    "PBM binding z-score": 0.493
  }
]

Challenge: For `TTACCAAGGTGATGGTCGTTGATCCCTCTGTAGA` , what is its reported PBM binding z-score?
Response given: 0.0639

* * *

System: RARg homodimer (NR concentration 270 nM)
experiment: PBM binding z-score (relative to random genomic background probes); higher = stronger binding; sequences stand for … in GC…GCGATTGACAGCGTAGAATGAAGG
Label Fulfilled when PBM binding z-score >= 2; otherwise Not fulfilled.

[
  {
    "chain_sequence": "CCTCGGAGGACAGCAGGAGGTCAGAGCTGCCAGA",
    "group_label": "Fulfilled"
  },
  {
    "chain_sequence": "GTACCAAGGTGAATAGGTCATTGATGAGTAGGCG",
    "group_label": "Fulfilled"
  },
  {
    "chain_sequence": "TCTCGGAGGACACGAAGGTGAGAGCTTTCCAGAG",
    "group_label": "Not fulfilled"
  },
  {
    "chain_sequence": "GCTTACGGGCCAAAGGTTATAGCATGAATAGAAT",
    "group_label": "Not fulfilled"
  }
]

Challenge: Assess whether reported PBM binding z-score for `TTACCAAGGTGAGCTGAAGTCGTTGATCCAACTC` sits at 2 or higher.
Response given: Not fulfilled

Challenge: Follow-up item: `AGAACGAGAGCACGCTGAGTTGATAGCAGAGTAG`
Response given: Not fulfilled

Challenge: Follow-up item: `GGAACGAGGGCATTCGAGTTGATACCATGGCGAT`
Response given: Not fulfilled

Challenge: Follow-up item: `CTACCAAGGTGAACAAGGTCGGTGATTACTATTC`
Response given: Not fulfilled

Challenge: Follow-up item: `GGATATAGGTAATACAAGGTGAAAGTCCGATTGT`
Response given: Not fulfilled

Challenge: Follow-up item: `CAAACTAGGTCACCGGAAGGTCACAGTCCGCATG`
Response given: Fulfilled

Challenge: Follow-up item: `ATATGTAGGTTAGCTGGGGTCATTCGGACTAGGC`
Response given: Fulfilled

Challenge: Follow-up item: `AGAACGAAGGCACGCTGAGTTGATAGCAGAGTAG`
Response given: Not fulfilled

Challenge: Follow-up item: `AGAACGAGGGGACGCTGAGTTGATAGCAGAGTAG`
Response given: Not fulfilled

Challenge: Follow-up item: `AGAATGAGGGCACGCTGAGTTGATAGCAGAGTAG`
Response given: Fulfilled

Challenge: Follow-up item: `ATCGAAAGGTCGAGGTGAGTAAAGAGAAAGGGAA`
Response given: Fulfilled

Challenge: Follow-up item: `CCTTACCGGTCACGAGGTTATAGCACGACGAGCG`
Response given: Fulfilled

Challenge: Follow-up item: `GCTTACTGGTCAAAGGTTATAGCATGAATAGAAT`
Response given: Not fulfilled

Challenge: Follow-up item: `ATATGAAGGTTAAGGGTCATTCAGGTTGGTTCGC`
Response given: Fulfilled

Challenge: Follow-up item: `AGAATGAGGTTTAGATCAGGGAAACAGAATACAT`
Response given: Not fulfilled

Challenge: Follow-up item: `ATATGTAGGTTAGCTGCGGTCATTCAGACTAGGC`
Response given: Not fulfilled

Challenge: Follow-up item: `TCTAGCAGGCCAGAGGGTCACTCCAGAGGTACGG`
Response given: Not fulfilled

Challenge: Follow-up item: `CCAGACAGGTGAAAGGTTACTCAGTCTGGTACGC`
Response given: Not fulfilled

Challenge: Follow-up item: `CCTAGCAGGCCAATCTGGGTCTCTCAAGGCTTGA`
Response given: Not fulfilled

Challenge: Follow-up item: `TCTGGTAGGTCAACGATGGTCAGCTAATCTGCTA`
Response given: Fulfilled

Challenge: Follow-up item: `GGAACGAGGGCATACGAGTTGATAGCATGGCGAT`
Response given: Not fulfilled

Challenge: Follow-up item: `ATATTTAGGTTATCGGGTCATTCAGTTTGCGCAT`
Response given: Fulfilled

* * *

Test system: VDR:RXRa (NR concentration 270 nM, RXRa partner concentration 90 nM)
experiment: PBM binding z-score (relative to random genomic background probes); higher = stronger binding; sequences stand for … in GC…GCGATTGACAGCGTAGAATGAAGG
experimental_endpoint: PBM binding z-score
# answer = number (no unit)

# example entries with known answers
[
  {
    "chain_sequence": "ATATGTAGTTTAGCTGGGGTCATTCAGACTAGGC",
    "PBM binding z-score": 5.22
  },
  {
    "chain_sequence": "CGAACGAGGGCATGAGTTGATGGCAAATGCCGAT",
    "PBM binding z-score": 1.34
  },
  {
    "chain_sequence": "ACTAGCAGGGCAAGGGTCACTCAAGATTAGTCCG",
    "PBM binding z-score": 2.95
  },
  {
    "chain_sequence": "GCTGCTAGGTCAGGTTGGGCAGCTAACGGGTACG",
    "PBM binding z-score": -0.00639
  }
]

Could you now look at the following sequence, please?
Challenge: Report PBM binding z-score for `GCTATTAGTTGAAAGTGCAACCGAATGATTCTCG` tested on VDR:RXRa (NR concentration 270 nM, RXRa partner concentration 90 nM).
Response given: 0.133
